# ASSAY_EXPLANATION: Inhibition of Gastric Acid Secretion in the Conscious Male Rat
# Type: in vivo, male rats of the Sprague-Dawley strain
# PARTICULARS: in vivo, ratio ED50 iv/ED50 id, read-out: "Bioavailability" measured by the Rough Screening Model, Rat ED50 iv/ED50 id
Reported bioavailability values follow for various molecules
Express the result in % but write the number alone.

Ask | Respond only with bioavailability recorded for COc1ccnc(C[S+]([O-])c2nc3c(F)cccc3[nH]2)c1 (centres unmarked)
Reply | 40

Ask | Respond only with bioavailability recorded for CC(C)Oc1ccnc(C[S+]([O-])c2nc3cc(F)ccc3[nH]2)c1 (centres unmarked)
Reply | 45

The origin of these recorded values is patent US5025024A.
